target_system: Opioid receptors; mu & delta (Rattus norvegicus) (UniProt P33533+P33535)
Sequence (P33533 whole entry, looked up): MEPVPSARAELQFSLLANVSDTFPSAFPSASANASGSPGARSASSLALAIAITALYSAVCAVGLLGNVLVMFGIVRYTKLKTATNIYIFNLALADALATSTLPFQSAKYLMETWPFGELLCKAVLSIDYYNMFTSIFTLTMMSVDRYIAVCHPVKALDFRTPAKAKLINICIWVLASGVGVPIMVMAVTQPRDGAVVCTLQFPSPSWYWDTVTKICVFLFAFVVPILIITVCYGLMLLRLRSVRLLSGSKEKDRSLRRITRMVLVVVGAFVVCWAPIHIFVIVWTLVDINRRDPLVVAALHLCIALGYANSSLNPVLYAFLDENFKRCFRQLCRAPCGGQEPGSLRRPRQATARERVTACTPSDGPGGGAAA
Sequence (P33535 whole entry, looked up): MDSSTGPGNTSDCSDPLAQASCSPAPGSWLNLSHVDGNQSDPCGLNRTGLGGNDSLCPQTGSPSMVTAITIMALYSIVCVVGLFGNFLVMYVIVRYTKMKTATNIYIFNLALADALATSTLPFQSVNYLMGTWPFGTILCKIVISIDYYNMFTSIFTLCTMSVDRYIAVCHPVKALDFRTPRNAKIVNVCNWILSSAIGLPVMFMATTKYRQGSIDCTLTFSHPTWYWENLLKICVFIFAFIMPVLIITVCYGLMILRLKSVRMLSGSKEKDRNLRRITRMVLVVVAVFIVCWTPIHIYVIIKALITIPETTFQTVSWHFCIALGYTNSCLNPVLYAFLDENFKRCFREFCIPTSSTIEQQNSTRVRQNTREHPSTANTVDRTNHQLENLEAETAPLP
test_protocol: Agonist activity ratio (Ki of mu receptors compared to Ki of delta receptors).
Assay type: functional
Where a SMILES comes first, the peptide text is derived from it. [ ]: non-standard residue; d: D form. The star is where a group is joined. Dmt = Cc1cc(O)cc(C)c1C[C@H](N)C(=O)O; Tic = O=C(O)[C@@H]1Cc2ccccc2CN1; NHtBu = CC(C)(C)N*; NHNH2 = NN*
metric_name: Ratio
Reply briefly: the number, and no unit.

Some solved entries appear below for comparison.
[[record]]
molecule = "Cc1cc(O)cc(C)c1C[C@H](N)C(=O)N1Cc2ccccc2C[C@H]1C(=O)NC(C)(C)C (H-[Dmt]-[Tic]-NHtBu)"
target_system = "Opioid receptors; mu & delta (Rattus norvegicus) (UniProt P33533+P33535)"
metric_name = "Ratio"
experimental_result = 14

[[record]]
molecule = "Cc1cc(O)cc(C)c1C[C@@H](C(=O)N1Cc2ccccc2C[C@H]1C(=O)O)N1CCCC1"
target_system = "Opioid receptors; mu & delta (Rattus norvegicus) (UniProt P33533+P33535)"
metric_name = "Ratio"
experimental_result = 502

[[record]]
molecule = "Cc1cc(O)cc(C)c1C[C@H](N)C(=O)N1Cc2ccccc2C[C@H]1C(=O)NN (H-[Dmt]-[Tic]-NHNH2)"
target_system = "Opioid receptors; mu & delta (Rattus norvegicus) (UniProt P33533+P33535)"
metric_name = "Ratio"
experimental_result = 86

[[record]]
molecule = "Cc1cc(O)cc(C)c1C[C@@H](C(=O)N1Cc2ccccc2C[C@@H]1C(=O)NC12C[C@H]3C[C@@H](C1)C[C@@H](C2)C3)N(C)C"
target_system = "Opioid receptors; mu & delta (Rattus norvegicus) (UniProt P33533+P33535)"
metric_name = "Ratio"
experimental_result = 0.36


Kindly indicate its recorded Ratio. Item: CNC(=O)[C@H](C)NC(=O)[C@@H]1Cc2ccccc2CN1C(=O)[C@@H](N)Cc1c(C)cc(O)cc1C (H-[Dmt]-[Tic]-Ala-NHMe)
100

Return Ratio (reported value) for this molecule: CNC(=O)[C@@H]1Cc2ccccc2CN1C(=O)[C@H](Cc1c(C)cc(O)cc1C)N(C)C
669

For the molecule COC(=O)[C@@H]1Cc2ccccc2CN1C(=O)[C@@H](N)Cc1c(C)cc(O)cc1C (H-[Dmt]-[Tic]-OMe) , give its reported Ratio.
44
